# TARGET_ENTITY: human PAD4 (Homo sapiens)
# Construct: human PAD4 (NM_012387), A2-P663, was PCR amplified; His-SUMO (N, cleaved yes)
# EXPERIMENTAL_DETAILS: In vitro PAD4 BAEE biochemical assay
# CONDITION_CONTEXT: BAEE substrate 3 mM, 5 nM PAD4, 2 mM calcium chloride; geometric mean of multiple experiments
OBSERVATION_TYPE: pIC50
Please report pIC50 as the negative decimal logarithm of the molar concentration, giving only the number.

Recorded pIC50, per entry:
COc1cc(C(=O)N2[C@H]3CC[C@@H]2[C@H](N)C3)cc2nc(-c3cc4ccc5nc4n3CCCCCCCCCC(=O)N[C@@H]5C)c(C)n12 [Example 287]: 7.26
C[C@H]1NC(=O)[C@@H]2C[C@H]2CCCC(F)(F)Cn2c(-c3nc4cc(C(=O)N5C[C@H](N)[C@@H]6CC[C@H]5C6)cc(F)c4n3C3CC3)cc3ccc1nc32 [Example 438]: 7.60

We now examine a further compound.
Consider the compound COc1cc(C(=O)N2CC[C@@H](OC)[C@@H](N)C2)cc2nc(-c3cc4ccc5nc4n3CCCCC[C@]3(F)C[C@H]3C(=O)N[C@@H]5C)n(C)c12 [Example 689] and give its measured pIC50.
7.41

---

Below, each entry is listed with its recorded IC50.
# TARGET_ENTITY: human PAD4 (Homo sapiens, UniProt Q9UM07)
# Construct: human PAD4 (NM_012387), A2-P663, was PCR amplified; His-SUMO (N, cleaved yes)
# Sequence (Q9UM07 2-663): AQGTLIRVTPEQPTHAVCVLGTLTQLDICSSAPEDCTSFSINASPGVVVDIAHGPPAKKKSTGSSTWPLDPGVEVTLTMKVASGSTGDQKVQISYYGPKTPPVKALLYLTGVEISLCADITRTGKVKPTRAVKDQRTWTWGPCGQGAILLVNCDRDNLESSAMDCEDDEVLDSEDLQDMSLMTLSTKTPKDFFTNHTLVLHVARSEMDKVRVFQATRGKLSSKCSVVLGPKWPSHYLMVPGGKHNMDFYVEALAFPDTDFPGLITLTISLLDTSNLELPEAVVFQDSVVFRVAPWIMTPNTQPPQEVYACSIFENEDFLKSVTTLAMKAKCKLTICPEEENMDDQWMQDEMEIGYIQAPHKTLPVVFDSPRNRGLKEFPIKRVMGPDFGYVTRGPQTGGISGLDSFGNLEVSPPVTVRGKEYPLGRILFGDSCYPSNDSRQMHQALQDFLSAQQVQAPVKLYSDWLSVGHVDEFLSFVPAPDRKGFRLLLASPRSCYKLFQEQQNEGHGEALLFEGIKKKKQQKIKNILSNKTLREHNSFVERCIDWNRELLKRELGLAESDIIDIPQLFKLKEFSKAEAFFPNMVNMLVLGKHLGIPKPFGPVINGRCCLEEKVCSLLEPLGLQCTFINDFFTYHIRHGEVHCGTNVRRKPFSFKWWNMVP
# EXPERIMENTAL_DETAILS: In vitro PAD4 BAEE biochemical assay
# CONDITION_CONTEXT: BAEE substrate 3 mM, 5 nM PAD4, 2 mM calcium chloride; geometric mean of multiple experiments
Answer format: number, then unit.

Recorded IC50, per entry:
COc1cc(C(=O)N2[C@H]3CC[C@@H]2[C@H](N)C3)cc2nc(-c3cc4ccc5nc4n3C[C@@H]3C[C@@H]3COCCC(=O)N[C@@H]5C)n(C)c12: 32 nM
COc1cc(C(=O)N2CCC[C@@H](N)C2)cc2nc(-c3cc4ccc5cc4n3CCCCCCNC(=O)c3ncccc3-5)n(C)c12: 424 nM
COc1cc(C(=O)N2CC[C@@H](OC)[C@@H](N)C2)cc2nc(-c3cc4ccc5cc4n3CCCCCCC(C)(C)C(=O)N[C@@H]5C)n(C)c12: 109 nM
CO[C@@H]1CCN(C(=O)c2cc(F)c3c(c2)nc(-c2cc4ccc5nc4n2CCCCCc2cc(Cl)ncc2C(=O)N[C@@H]5C)n3C)C[C@@H]1N: 96 nM
COc1cc(C(=O)N2CCC[C@@H](N)C2)cc2nc(-c3cc4ccc5nc4n3CCCCCCCC(=O)N[C@@H]5C)n(C3CC3)c12: 72 nM

We now examine a further molecule.
Consider the molecule `COc1cc(C(=O)N2C[C@H](N)[C@@H]3CC[C@H]2C3)cc2nc(-c3cc4ccc5nc4n3CCCCCC[C@@](F)(c3ccccn3)C(=O)N[C@@H]5C)n(C)c12` and give its measured IC50.
24 nM

---

# TARGET_ENTITY: human PAD4 (Homo sapiens, UniProt Q9UM07)
# Construct: human PAD4 (NM_012387), A2-P663, was PCR amplified; His-SUMO (N, cleaved yes)
# EXPERIMENTAL_DETAILS: In vitro PAD4 BAEE biochemical assay
# CONDITION_CONTEXT: BAEE substrate 3 mM, 5 nM PAD4, 2 mM calcium chloride; geometric mean of multiple experiments
OBSERVATION_TYPE: IC50 (nM)
Answer in nM, number only, no unit symbol.

Recorded IC50, per entry:
COc1cc(C(=O)N2CC[C@@H](OC)[C@@H](N)C2)cc2nc(-c3cc4ccc5nc4n3CC(F)(F)CCC[C@@H]3C[C@H]3C(=O)N(CC3CC3)[C@@H]5C)n(C)c12: 37
COc1cc(C(=O)N[C@@H]2CNC[C@@H]2F)cc2nc(-c3cc4ccc5nc4n3CCCCCCC(C)(C)C(=O)N[C@@H]5C)n(C)c12: 5960
C[C@H]1NC(=O)C2C[C@H]2CCCCCn2c(-c3nc4cc(C(=O)N5CCC[C@@H](N)C5)cc(Cl)c4n3C)cc3ccc1nc32 (stereo partly shown): 39

Consider the molecule `COc1cc(C(=O)N2CC[C@@H](OC)[C@@H](N)C2)cc2nc(-c3cc4ccc5nc4n3C[C@H]3C[C@H]3CCC[C@@](C)(C(F)(F)F)C(=O)N[C@@H]5C)n(C)c12` and give its measured IC50.
183

And for `C[C@H]1NC(=O)c2nccnc2CCCCCn2c(-c3nc4cc(C(=O)N[C@H]5CNCC[C@@H]5F)c(F)cc4n3C3CC3)cc3ccc1nc32` ?
68

And for `CO[C@@H]1CCN(C(=O)c2cc(F)c3c(c2)nc(-c2cc4ccc5nc4n2CCCCCc2nc(Cl)ccc2C(=O)N[C@@H]5C)n3C2CC2)C[C@@H]1N` ?
22

And for `COc1cc(C(=O)N2CCC[C@@H](N)[C@H]2C)cc2nc(-c3cc4ccc5nc4n3CCCCCCC(C)(C)C(=O)N[C@@H]5C)n(C)c12` ?
60

And for `COc1cc(C(=O)N2CCC[C@@H](N)C2)cc2nc(-c3cc4ccc5nc4n3C[C@H]3C[C@H]3COCC3(CC3)C(=O)N[C@@H]5C)n(C)c12` ?
175

And for COc1cc(C(=O)N2CCC[C@@H](N)C2)cc2nc(-c3cc4ccc5nc4n3C[C@H]3C[C@H]3CC[C@@H]3C[C@H]3C(=O)N[C@@H]5C)n(C)c12 (single isomer, unassigned) ?
40

And for `COc1cc(C(=O)N2[C@H]3CC[C@@H]2[C@H](N)C3)cc2nc(-c3cc4ccc5nc4n3C[C@@H]3C[C@H]3COCCC(=O)N[C@@H]5C)c(C)n12` ?
15
